Data credit: ChEMBL document CHEMBL5614419

Recorded inhibition at 1 µM, one value per entry.
# Tested on: SUD4
# protocol description: Antiproliferative activity against BCL6-dependent human SU-DHL-4 cells assessed as inhibition of cell growth at 1 uM measured after 6 days by MTT assay relative to control
# Type: functional
# condition info: SU-DHL-4, 144 h, time 6 day
Reply with just the number (in %).

Below, each entry is followed by its recorded inhibition at 1 µM result.
Entry COc1cc(Nc2nc(N3CCN(C(=O)CCOCC#Cc4cccc5c4CN(C4CCC(=O)NC4=O)C5=O)CC3)ncc2F)ccc1NC(=O)c1ccc(C2=CCCC2)s1 (stereo not given) under SUD4 had inhibition at 1 µM of 5.7

For COc1cc(Nc2nc(N3CCN(CCCCCNc4cccc5c4C(=O)N(C4CCC(=O)NC4=O)C5=O)CC3)ncc2F)ccc1NC(=O)c1ccc(C2=CCCC2)s1 (stereo not given) on SUD4, measured inhibition at 1 µM was 58.7

Test item COc1cc(Nc2nc(N3CCN(C(=O)CCCCCNc4cccc5c4C(=O)N(C4CCC(=O)NC4=O)C5=O)CC3)ncc2F)ccc1NC(=O)c1ccc(C2=CCCC2)s1 (stereo not given) ; SUD4; reported inhibition at 1 µM was 31

The recorded inhibition at 1 µM with SUD4 for COc1cc(Nc2nc(N3CCN(CCOCCNc4cccc5c4C(=O)N(C4CCC(=O)NC4=O)C5=O)CC3)ncc2F)ccc1NC(=O)c1ccc(C2=CCCC2)s1 (stereo not given) was 66.1

From here, focus on the item given below.
The measured inhibition at 1 µM that COc1cc(Nc2nc(N3CCN(C(=O)CCOCCNc4cccc5c4C(=O)N(C4CCC(=O)NC4=O)C5=O)CC3)ncc2F)ccc1NC(=O)c1ccc(C2=CCCC2)s1 (stereo not given) showed for SUD4 is 47
